Exercise: state measured relative binding fold change compared to LIBC523797-1(Fab) for each of the binders provided.
target: T1, His-tagged huCB1-ND (human, UniProt P21554 99-414, limits assumed); test: flow cytometry, yeast-displayed Fab, 0.5 nM CB1 ND
T1 construct: The real construct may be truncated or engineered; also called CB1-nanodisc; not shown: histidine purification tag
T1 sequence (P21554 99-414 limits assumed): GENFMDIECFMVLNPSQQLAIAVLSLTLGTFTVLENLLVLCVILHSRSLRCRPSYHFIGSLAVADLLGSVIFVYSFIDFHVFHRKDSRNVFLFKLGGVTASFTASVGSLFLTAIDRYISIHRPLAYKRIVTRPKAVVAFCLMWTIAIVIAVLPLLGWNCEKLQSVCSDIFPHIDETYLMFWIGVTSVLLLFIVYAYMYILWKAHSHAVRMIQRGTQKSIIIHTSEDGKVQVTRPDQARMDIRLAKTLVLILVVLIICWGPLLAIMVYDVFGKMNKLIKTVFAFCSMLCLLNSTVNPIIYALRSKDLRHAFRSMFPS

Prompt line: relative binding fold change compared to LIBC523797-1(Fab) lookup needed for LIBC674229-1 (Fab on yeast) (Fab, V domains shown, Clone of the Fab-yeast libraries) VH: QVQLQESGPGLVKPSQTLSLTCTVSGGSIRRGGDYWSWIRQHPGKGLEWIGHIYQTGQTKYNPSFKGRVRISVNTYKNQFSLKLSSVTAADTAVYYCARGYDVSGYSYYYYGMDVWGQGTTVTVSS VL: DIVMTQSPLSLPVTPGEPASISCRSSQSLLHRSGYNYLDWYLQKPGQSPQLLIYQGSNRASGVPDRFSGSGSGTDFTLKISRVEAEDVGVYYCMQSLQTPRTFGQGTKVEIKR , thanks.
Response line: 2.22 fold

Prompt line: Proceed to LIBC673952-1 (Fab on yeast) (Fab, V domains shown, Clone of the Fab-yeast libraries) VH: QVQLQESGPGLVKPSQTLSLTCTVSGGSIRRGGDYWSWIRQHPGKGLEWIGHVYYTGQTTYNPSFRGRVTISVNTYKNQFSLKLSSVTAADTAVYYCARDYDILTGYSYYYYGLDVWGQGTTVTVSS VL: DIVMTQSPLSLPVTPGEPASISCRSSQSLLHRSGYNYLDWYLQKPGQSPQLLIYQGSNRASGVPDRFSGSGSGTDFTLKISRVEAEDVGVYYCRQARALPRTFGQGTKVEIKR
Response line: 0.77 fold

Prompt line: How about LIBC674090-1 (Fab on yeast) (Fab, V domains shown, Clone of the Fab-yeast libraries) VH: QVQLQESGPGLVKPSQTLSLTCTVSGGSIRRGGDYWSWIRQHPGKGLEWIGHIYYAGSTAYNPNFRGRVRISVNTYKNQFSLKLSSVTAADTAVYYCARGYDTSGYSYYYYGLDVWGQGTTVTVSS VL: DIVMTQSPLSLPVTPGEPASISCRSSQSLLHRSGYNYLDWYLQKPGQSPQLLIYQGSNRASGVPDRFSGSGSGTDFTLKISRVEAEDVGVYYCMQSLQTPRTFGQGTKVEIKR ?
Response line: 1.35 fold

Prompt line: Another binder to look at: LIBC674200-1 (Fab on yeast) (Fab, V domains shown, Original clone of the Fab-yeast libraries, without the LC G76D reversion) VH: QVQLQESGPGLVKPSQTLSLTCTVSGGSIRRGGDYWSWIRQHPGKGLEWIGHVYYTGQTAYNPNFRNRVRISVNTYKNQFSLKLSSVTAADTAVYYCARGYDVSGYSYYYYGMDVWGQGTTVTVSS VL: DIVMTQSPLSLPVTPGEPASISCRSSQSLLHRSGYNYLDWYLQKPGQSPQLLIYLGSNRASGVPGRFSGSGSGTDFTLKISRVEAEDVGVYYCMQSLQTPRTFGQGTKVEIKR
Response line: 2.08 fold

Ref: patent US20250277029A1
